# Target Or System: T1, human GIP receptor (human, UniProt P48546 22-466)
# T1 sequence (looked up): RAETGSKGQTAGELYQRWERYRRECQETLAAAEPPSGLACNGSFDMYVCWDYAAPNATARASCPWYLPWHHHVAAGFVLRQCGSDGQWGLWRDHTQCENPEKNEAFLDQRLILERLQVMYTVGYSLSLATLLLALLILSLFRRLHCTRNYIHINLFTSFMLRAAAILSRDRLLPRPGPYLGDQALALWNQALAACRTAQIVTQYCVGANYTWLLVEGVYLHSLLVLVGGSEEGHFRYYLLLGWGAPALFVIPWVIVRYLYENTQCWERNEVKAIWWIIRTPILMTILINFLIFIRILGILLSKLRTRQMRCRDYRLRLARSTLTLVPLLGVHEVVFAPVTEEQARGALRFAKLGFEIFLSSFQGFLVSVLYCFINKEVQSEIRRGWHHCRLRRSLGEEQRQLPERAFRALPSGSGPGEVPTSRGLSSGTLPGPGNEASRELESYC
# Test Summary: cell-based or functional assay
Starred links: 1 amine or outer side, 2 acyl side, 3 side chain; linkers in the order of their positions; H or OH if unused. Non-standard residues stand in square brackets, D forms with d. Groups on a side chain read outwards from the residue. No end group written: not given here. *: point of attachment. C20 diacid = O=C(O)CCCCCCCCCCCCCCCCCCC(=O)*; γGlu = O=C(O)[C@H](CCC(=O)[*:2])N[*:1]; εLys = N[C@@H](CCCCN[*:1])C(=O)[*:2]; Aib = CC(C)(N)C(=O)O
In this section, each of the binders is paired with its reported EC50, CreLuc assay, 100% hP.
# unit: nM | format: bare number

Query Y[Aib]EGTFTSDYSI[Aib]LEKQAQ[Aib]AFVEWLIK([εLys-Glu-γGlu-γGlu-γGlu-γGlu-C20 diacid])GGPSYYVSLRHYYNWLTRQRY-NH2 (also: TFA salt) [Compound 75] yields EC50, CreLuc assay, 100% hP of 12.4

Query YXEGTFTSDYSIXLEKQAQXAFVQWLIKGGPRYYASLRHYYNWLTRQRY (Aib at 2, 13, 20; K28 side chain: C20DA-gGlu-gGlu-gGlu-gGlu-gGlu-gGlu-eLys; C-terminal NH2) [Compound 14] yields EC50, CreLuc assay, 100% hP of 2.22

Query YXEGTFTSDYSIXLEKEAQXKFVEWLIKGGPSSGASLRHYYNWLTRQRY (Aib at 2, 13, 20; K28 side chain: C20DA-gGlu-gGlu-gGlu-gGlu-gGlu-gGlu-eLys; C-terminal NH2) [Compound 46] yields EC50, CreLuc assay, 100% hP of 1.21

Query YXEGTFTSDYSIXLEKQAQXAFVEWLIKGGPSEPQSIRHYYNWLTRQRY (Aib at 2, 13, 20; K28 side chain: C20DA-gGlu-gGlu-gGlu-gGlu-gGlu-gGlu-eLys; C-terminal NH2) [Compound 48] yields EC50, CreLuc assay, 100% hP of 0.68

Query YXEGTFTSDYSIXLEKQAQXAFVEWLIKGGPSSGQSXRHYYNWLTRQRY (Aib at 2, 13, 20, 37; K28 side chain: C20DA-gGlu-gGlu-gGlu-gGlu-gGlu-gGlu-eLys; C-terminal NH2) [Compound 44] yields EC50, CreLuc assay, 100% hP of 1.14

Query YXEGTFTSDYSIXLEKQAQXAFVEWLIKGGPSSGESXRHYYNWLTRQRY (Aib at 2, 13, 20, 37; K28 side chain: C20DA-gGlu-gGlu-gGlu-gGlu-gGlu-gGlu-eLys; C-terminal NH2) [Compound 49] yields EC50, CreLuc assay, 100% hP of 1.25

Query YXEGTFTSDYSIXLEKQAQXAFVEWLIKGGPSSPESXRHYYNWLTRQRY (Aib at 2, 13, 20, 37; K28 side chain: C20DA-gGlu-gGlu-gGlu-gGlu-gGlu-gGlu-eK; C-terminal NH2) [Compound 10] yields EC50, CreLuc assay, 100% hP of 1.25

Query YXEGTFTSDYSIXLEEQAQXAFVEWLIKGGPSSGQSLRHYYNWLTRQRY (Aib at 2, 13, 20; K28 side chain: C20DA-gGlu-gGlu-gGlu-gGlu-gGlu-gGlu-eLys; C-terminal NH2) [Compound 31] yields EC50, CreLuc assay, 100% hP of 2.63

Query YXEGTFTSDYSIXLEEQAQXAFVQWLIKGGPSSGASLRHYYNWLTRQRY (Aib at 2, 13, 20; K28 side chain: C20DA-gGlu-gGlu-Glu-gGlu-gGlu-gGlu-eLys; C-terminal NH2) [Compound 30] yields EC50, CreLuc assay, 100% hP of 1.06

Query Y[Aib]EGTFTSDYSI[Aib]LEKQAQ[Aib]AFVQWLIK([εLys-γGlu-γGlu-γGlu-γGlu-γGlu-C20 diacid])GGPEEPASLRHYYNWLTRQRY-NH2 (also: TFA salt) [Compound 67] yields EC50, CreLuc assay, 100% hP of 6.18

Query YXEGTFTSDYSIXLEKQAQXAFVEWLIKGGPSSGASLRHYLNWLTRQRY (Aib at 2, 13, 20; K28 side chain: C20DA-gGlu-gGlu-gGlu-gGlu-gGlu-gGlu-eLys; C-terminal NH2) [Compound 86] yields EC50, CreLuc assay, 100% hP of 1.61

Query YXEGTFTSDYSIXLEKQAQXAFVQWLIKGGPSSGESLRHYYNWLTRQRY (Aib at 2, 13, 20; K28 side chain: C20DA-gGlu-gGlu-gGlu-gGlu-gGlu-gGlu-eK; C-terminal NH2) [Compound 35] yields EC50, CreLuc assay, 100% hP of 0.96

Query Y[Aib]EGTFTSDYSI[Aib]LEKQAQ[Aib]AFVQWLIK([εLys-Glu-γGlu-γGlu-γGlu-γGlu-C20 diacid])GGPEYYASLRHYYNWLTRQRY-NH2 (also: TFA salt) [Compound 23] yields EC50, CreLuc assay, 100% hP of 11.4

Query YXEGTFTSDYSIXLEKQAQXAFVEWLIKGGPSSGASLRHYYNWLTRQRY (Aib at 2, 13, 20; NMeR 48; K28 side chain: C20DA-gGlu-gGlu-gGlu-gGlu-gGlu-gGlu-eLys; C-terminal NH2) [Compound 83] yields EC50, CreLuc assay, 100% hP of 1.06
